This collection of values is drawn from patent US20260001849A1.

biological target: hERG channel (Homo sapiens, UniProt Q12809); construct: host or cells: CHO cells; assay: hERG channel inhibitory activity, whole-cell patch clamp (auto-patch clamp system); assay type: cell-based; conditions: read-out: hERG IC50
Sequence (Q12809 whole entry): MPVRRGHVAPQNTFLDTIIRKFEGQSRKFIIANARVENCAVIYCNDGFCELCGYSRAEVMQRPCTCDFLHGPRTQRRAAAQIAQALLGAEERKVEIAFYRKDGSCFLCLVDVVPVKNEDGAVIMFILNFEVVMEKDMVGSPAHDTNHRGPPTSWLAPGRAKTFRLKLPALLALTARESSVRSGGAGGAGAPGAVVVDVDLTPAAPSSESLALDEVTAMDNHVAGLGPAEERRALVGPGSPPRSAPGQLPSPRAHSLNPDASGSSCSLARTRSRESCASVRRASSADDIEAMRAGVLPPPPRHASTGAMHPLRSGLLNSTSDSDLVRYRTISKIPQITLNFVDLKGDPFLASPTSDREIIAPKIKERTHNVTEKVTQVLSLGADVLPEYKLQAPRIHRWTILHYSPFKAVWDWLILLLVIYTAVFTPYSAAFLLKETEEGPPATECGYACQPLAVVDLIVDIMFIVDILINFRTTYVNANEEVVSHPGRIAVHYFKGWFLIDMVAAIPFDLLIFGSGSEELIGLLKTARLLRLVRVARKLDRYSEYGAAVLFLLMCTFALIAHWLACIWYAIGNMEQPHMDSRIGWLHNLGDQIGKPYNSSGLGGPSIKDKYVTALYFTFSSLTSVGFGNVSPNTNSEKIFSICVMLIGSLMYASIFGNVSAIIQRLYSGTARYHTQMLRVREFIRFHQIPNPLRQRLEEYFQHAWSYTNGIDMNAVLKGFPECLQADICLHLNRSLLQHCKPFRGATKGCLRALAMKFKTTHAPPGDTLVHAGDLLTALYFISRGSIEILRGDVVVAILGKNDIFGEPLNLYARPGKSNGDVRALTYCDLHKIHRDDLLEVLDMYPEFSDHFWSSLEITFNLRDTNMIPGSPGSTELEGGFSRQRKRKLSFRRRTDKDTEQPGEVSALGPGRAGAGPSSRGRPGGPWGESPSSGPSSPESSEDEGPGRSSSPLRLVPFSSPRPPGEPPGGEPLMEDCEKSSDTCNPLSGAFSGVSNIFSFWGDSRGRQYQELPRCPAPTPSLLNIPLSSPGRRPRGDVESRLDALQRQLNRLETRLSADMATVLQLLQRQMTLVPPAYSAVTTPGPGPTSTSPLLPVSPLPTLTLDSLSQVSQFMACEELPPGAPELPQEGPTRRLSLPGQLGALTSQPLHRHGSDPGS
pIC50: −log10 of the molar value.
VALUE_KIND: pIC50

CC(C)[C@@H]1CN(C(=O)CNC(=O)/C=C/c2ccc(C(F)(F)F)cc2F)[C@@H](c2ccccc2)CN1CCCC(=O)O    < 4.52

Exercise: Quick one: give measured pIC50 for C[C@@H]1CN(C(=O)CNC(=O)/C=C/c2ccc(C(F)(F)F)cc2F)[C@@H](c2ccc(F)c(F)c2)CN1CCCC(=O)O
Solution: < 4.52

Exercise: Quick one: give measured pIC50 for O=C(O)CCCN1CCN(C(=O)CNC(=O)/C=C/c2ccc(C(F)(F)F)cc2F)C(c2ccc(Cl)c(F)c2)C1 (stereo not shown) [I-267]
Solution: < 4.52

Exercise: Quick one: give measured pIC50 for O=C(O)CCCN1CCN(C(=O)CNC(=O)/C=C/c2ccc(C(F)(F)F)cc2F)[C@@H](C(F)(F)F)C1
Solution: < 4.52
